B1: LINE1-mini (parent)
chain: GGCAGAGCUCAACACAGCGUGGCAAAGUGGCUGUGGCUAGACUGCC

# Variants of: B1
# Protocol notes: self-cleavage, relative activity (ratio to wild type); higher = more cleavage; in vitro, sequencing; the parent is a self-cleaving ribozyme
Reported self-cleavage by item:

Sample records with self-cleavage:
- Mutation key: "G29C G35A"
  Observable: "self-cleavage"
  Result: 0.13
- Mutation key: "G22C G29A"
  Observable: "self-cleavage"
  Result: 1.19
- Mutation key: "G7C C15G"
  Observable: "self-cleavage"
  Result: 0.08
- Mutation key: "U9A U38C"
  Observable: "self-cleavage"
  Result: 0.12
- Mutation key: "G1C G19U"
  Observable: "self-cleavage"
  Result: 0.06
- Mutation key: "G5A A14C"
  Observable: "self-cleavage"
  Result: 0.09
- Mutation key: "G21U G29C"
  Observable: "self-cleavage"
  Result: 0.4
- Mutation key: "C23G U32C"
  Observable: "self-cleavage"
  Result: 0.28
- Mutation key: "G36C C45G"
  Observable: "self-cleavage"
  Result: 0.04
- Mutation key: "A25U G36C"
  Observable: "self-cleavage"
  Result: 0.05

Item G5U C18A has what recorded self-cleavage?
0.07

Item G2C C15U has what recorded self-cleavage?
0.11

Item C3U G30A has what recorded self-cleavage?
0.75

Item A4C C8G has what recorded self-cleavage?
0.07

Item C13U has what recorded self-cleavage?
0.17

Item A25C C46G has what recorded self-cleavage?
0.75

Item C18U G35C has what recorded self-cleavage?
0.03

Item G21U U32G has what recorded self-cleavage?
0.26

Item A25U has what recorded self-cleavage?
1.21

Item G17A G36A has what recorded self-cleavage?
0.1

Item G7A C45G has what recorded self-cleavage?
0.29

Item C8G C10U has what recorded self-cleavage?
0.06

Item G19A U34G has what recorded self-cleavage?
0.29

Item A6G C10U has what recorded self-cleavage?
0.04

Item G35A C37A has what recorded self-cleavage?
0.14

Item A6U C10G has what recorded self-cleavage?
0.06

Item G2A U20C has what recorded self-cleavage?
0.48

Item C8G U32C has what recorded self-cleavage?
0.06

Item U9C has what recorded self-cleavage?
0.04

All figures here come from the RNAGym collection of RNA variant scans (doi:10.7554/elife.90254).
